# Assayed System: HCV polymerase (Hepatitis C virus genotype 1b, UniProt P26663)
# Construct: a region encoding NS5B (591 amino acids; J Virol 1991 Mar, 65(3), 1105-13) was amplified by PCR; 6 His (N); made in house; host or cells: Escherichia coli
# Sequence (P26663 2420-3010): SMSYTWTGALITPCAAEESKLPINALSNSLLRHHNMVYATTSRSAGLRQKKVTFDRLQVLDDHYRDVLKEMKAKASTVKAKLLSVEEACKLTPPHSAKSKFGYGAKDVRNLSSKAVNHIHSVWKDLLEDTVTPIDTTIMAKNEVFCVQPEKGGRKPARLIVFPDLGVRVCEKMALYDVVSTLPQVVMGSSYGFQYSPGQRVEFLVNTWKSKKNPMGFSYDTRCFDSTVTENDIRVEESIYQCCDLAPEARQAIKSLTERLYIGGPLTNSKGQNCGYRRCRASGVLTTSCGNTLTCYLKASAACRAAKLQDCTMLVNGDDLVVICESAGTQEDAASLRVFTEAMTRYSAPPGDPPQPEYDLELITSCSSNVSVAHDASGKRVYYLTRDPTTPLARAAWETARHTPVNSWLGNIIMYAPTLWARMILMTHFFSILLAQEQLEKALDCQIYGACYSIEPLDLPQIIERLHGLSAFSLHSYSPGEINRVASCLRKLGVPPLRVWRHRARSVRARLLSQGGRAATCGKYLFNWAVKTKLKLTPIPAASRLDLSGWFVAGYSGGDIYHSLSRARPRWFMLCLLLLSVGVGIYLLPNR
# Assay Remarks: biochemical
# Experimental Context: read-out: HCV polymerase inhibitory activity IC50
Counter-ions that a name gives are not always drawn.
Reported Metric: IC50
For clarity, give the value followed by its unit.

Can you look up the measured IC50 of Cc1nc(COc2ccc(-c3nc4cc(C(=O)O)ccc4n3C3CCCCC3)cc2)c(-c2ccc(Cl)cc2)s1 for me? 50 nM

Can you look up the measured IC50 of CCCN(C)C(=O)c1ccc(-c2ccc(Cl)cc2)c(COc2ccc(-c3nc4cc(C(=O)O)ccc4n3C3CCCCC3)c(F)c2)c1 [Example 385, hydrochloride] for me? 19 nM

Can you look up the measured IC50 of O=C(O)c1ccc(-c2ccc(Cl)cc2)c(COc2ccc(-c3nc4cc(C(=O)O)ccc4n3C3CCCCC3)cc2)c1 for me? 17 nM
